pKi: −log10 of the molar value.
human vasopressin V1b receptor (Homo sapiens): recorded pKi for assorted compounds

Examples from the recorded data:
COMPOUND	pKi
COc1ccc(S(=O)(=O)n2c(=O)n(C(C(=O)NCc3ccccn3)c3ccccc3)c3cc(Cl)ccc32)cc1 (stereo not shown) [Example 111]	5.00 to 6.30
COc1ccc(S(=O)(=O)n2c(=O)n(C(C(=O)N3CCN(c4ccncc4)CC3)c3ccccc3)c3ccc(Cl)cc32)c(OC)c1 (stereo not shown) [Example 66]	5.00 to 6.30
COc1ccc(S(=O)(=O)n2c(=O)n(C(C(=O)N3CC[C@H](CN(C)C4CCN(C)CC4)C3)c3ccccc3)c3cc(C#N)ccc32)cc1 (stereo partly shown) [Example 256, trifluoroacetic acid]	> 7.00

Test system human vasopressin V1b receptor (Homo sapiens); read-out pKi; what value for COc1ccc(S(=O)(=O)n2c(=O)n(C(C(=O)N3CCN(C4CCN(C)CC4)CC3)c3ccccc3)c3ccccc32)cc1 (stereo not shown) [Example 60] ?
5.00 to 6.30

---

Below, each entry is listed alongside its reported Ki.
# EXPERIMENTAL TARGET: human vasopressin V1b receptor (Homo sapiens, UniProt P47901)
# Construct: expressed in transfected cells; host or cells: CHO-K1 (cell line hV1b-3H2_CHO), membrane preparation
# Sequence (P47901 whole entry): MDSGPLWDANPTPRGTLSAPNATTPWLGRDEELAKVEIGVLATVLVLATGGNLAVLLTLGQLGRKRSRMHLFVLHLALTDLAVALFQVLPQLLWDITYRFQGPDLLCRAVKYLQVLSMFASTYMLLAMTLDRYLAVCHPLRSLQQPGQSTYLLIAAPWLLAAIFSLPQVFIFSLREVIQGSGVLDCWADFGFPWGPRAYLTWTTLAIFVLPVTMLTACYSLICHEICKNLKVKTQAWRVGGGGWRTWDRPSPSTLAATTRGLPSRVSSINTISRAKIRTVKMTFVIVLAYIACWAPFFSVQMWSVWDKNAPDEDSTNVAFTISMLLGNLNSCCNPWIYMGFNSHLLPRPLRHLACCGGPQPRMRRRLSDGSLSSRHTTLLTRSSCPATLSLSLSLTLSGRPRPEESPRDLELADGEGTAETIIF
# TEST NAME: Vasopressin V1b receptor binding assay
# SETTINGS: membranes from CHO-K1 cells with stably expressed human V1b receptors; displacement of 1.5 nM 3H-AVP; read-out: V1b receptor affinity (affinity constant Ki)

Test system human vasopressin V1b receptor (Homo sapiens, UniProt P47901); read-out Ki; what value for COc1ccc(S(=O)(=O)n2c(=O)n(C(C(=O)N3CCN(c4ccncc4)CC3)c3ccccc3)c3cc(Cl)c(Cl)cc32)c(OC)c1 (stereo not shown) ?
500 to 10000 nM

Try the molecule COc1ccc(S(=O)(=O)n2c(=O)n(C(C)C(=O)N3CCN(c4ccncc4)CC3)c3cc(Cl)ccc32)cc1 (stereo not shown)
500 to 10000 nM

Try the molecule COc1ccc(S(=O)(=O)n2c(=O)n(C(C(=O)N3CCC(N4CCNCC4)C3)c3ccccc3)c3cc(Cl)ccc32)cc1 (stereo not shown)
< 100 nM

Try the molecule COc1ccc(S(=O)(=O)n2c(=O)n(C(C(=O)N3CCN(c4ccccn4)CC3)c3ccccc3)c3cc(Cl)ccc32)cc1 (stereo not shown)
500 to 10000 nM

Try the molecule COc1ccc(S(=O)(=O)n2c(=O)n(C(C(=O)N3CC[C@H](N4CCNCC4)C3)c3ccccc3)c3cc(C#N)ccc32)cc1 (stereo partly shown)
< 100 nM

Try the molecule COc1ccc(S(=O)(=O)n2c(=O)n(C(C(=O)NCCc3c[nH]cn3)c3ccccc3)c3cc(Cl)ccc32)cc1 (stereo not shown)
500 to 10000 nM

Try the molecule CCCN1CCN([C@H]2CCN(C(=O)C(c3ccccc3)n3c(=O)n(S(=O)(=O)c4ccc(OCC(F)F)cc4)c4ccc(C#N)cc43)C2)CC1 (stereo partly shown)
< 100 nM

Try the molecule O=C(C(c1ccccc1)n1c(=O)n(S(=O)(=O)c2ccccc2)c2ccc(Cl)cc21)N1CCN(c2ccncc2)CC1 (stereo not shown)
100 to 500 nM

Try the molecule COc1ccc(S(=O)(=O)n2c(=O)n(C(C(=O)N3CCC[C@@H](NC4CCN(C(C)C)CC4)C3)c3ccccc3)c3cc(C#N)ccc32)cc1 (stereo partly shown)
< 100 nM

Try the molecule COc1ccc(S(=O)(=O)n2c(=O)n(C(C(=O)N3CC[C@H](NC4CCN(C)CC4)C3)c3ccccc3)c3cc(C#N)ccc32)cc1 (stereo partly shown)
< 100 nM

Try the molecule COc1ccc(S(=O)(=O)n2c(=O)n(C(C(=O)N3CCN(c4ncncn4)CC3)c3ccccc3)c3cc(Cl)ccc32)cc1 (stereo not shown)
500 to 10000 nM

Try the molecule CCCN1CCN(C2CCCN(C(=O)C(c3ccccc3)n3c(=O)n(S(=O)(=O)c4ccc(OC)cc4)c4ccc(Cl)cc43)C2)CC1 (stereo not shown)
< 100 nM

Try the molecule CCCN1CCN([C@H]2CCCN(C(=O)C(c3ccccc3)n3c(=O)n(S(=O)(=O)c4ccc(OC)cc4)c4ccc(C#N)cc43)C2)CC1 (stereo partly shown)
< 100 nM

Source of measurements: patent US8791148B2
